Tested on: guinea pigs
ASSAY_INFO: Antitussive effect, Mechanical Stimulus Method
Assay type: in vivo, guinea pig
RECORDED_CONDITIONS: codeine phosphate = 100
EXPERIMENTAL_READOUT: Effect Ratio to Codeine Phosphate, Mechanical Stimulus Method

# MOLECULE, REPORTED_RESULT
records = [
    ("C=CCN1CCC2CC(Cc3ccccc32)C1 (centres unmarked)", 195.0),
    ("COc1ccc2c(c1)C1(C)CCN(C)CC(C1)C2O (centres unmarked)", 105.5),
    ("CN1CCC2CC(C1)C(O)c1ccccc12 (centres unmarked)", 157.1),
    ("CN1CCC2(C)CC(C1)C(O)c1ccccc12 (centres unmarked)", 326.9),
    ("C=CCN1CCC2CC(C1)C(O)c1ccccc12 (centres unmarked)", 76.6),
]

---

ASSAY_INFO: Hygroscopicity of the salt
Format: physicochemical
RECORDED_CONDITIONS: crystalline salt, cis-form
EXPERIMENTAL_READOUT: hygroscopicity

# COMPOUND, REPORTED_RESULT
measured = [
    ("CC1C2Cc3ccc(O)cc3C1(C)CCN(C)C2 (stereo not drawn) [Example 20]", "hygroscopic"),
    ("CCC12CCN(C)CC(Cc3ccc(O)cc31)C2C (stereo not drawn) [Example 22]", "hygroscopic"),
    ("CC1C2Cc3ccccc3C1(C)CCN(C)C2 (stereo not drawn) [Example 23]", "hygroscopic"),
    ("CC1C2CN(C)CCC1(C)c1ccccc1C2O (stereo not drawn) [Example 15]", "hygroscopic"),
    ("COc1ccc2c(c1)C1(C)CCN(C)CC(C2O)C1C (stereo not drawn) [Example 12]", "hygroscopic"),
    ("CC(C)CCN1CCC2(C)c3cc(O)ccc3CC(C1)C2C (stereo not drawn) [Example 89]", "being hygro-"),
    ("CC1C2Cc3ccc(O)cc3C1(C)CCN(CCc1ccccc1)C2 (stereo not drawn) [Example 87]", "being hygro-"),
    ("CC1C2Cc3ccc(O)cc3C1(C)CCN(C)C2 (stereo not drawn) [Example 90]", "being hygro-"),
]

---

ASSAY_INFO: Acute Toxicity
RECORDED_CONDITIONS: in vivo; mouse, intravenous injection
Entries and their LD50

# MOLECULE, LD50 (mg/kg)
rows = [
    ("C=CCN1CCC2(C)CC(C1)C(O)c1ccc(OC)cc12 (stereo not drawn)", 61),
    ("CCN1CCC2(C)c3cc(OC)ccc3CC(C1)C2C (stereo not drawn)", 100),
    ("CN1CCC2(C)CC(Cc3ccc(O)cc32)C1 (stereo not drawn)", 75),
    ("CC(C)=CCN1CCC2CC(C1)C(O)c1ccccc12 (stereo not drawn) [R=H, R1=H, R2=H, CH2R3=drawing 36, R4=OH]", 60),
    ("COc1ccc2c(c1)C1(C)CCN(CCc3ccccc3)CC(C1)C2O (stereo not drawn)", 45),
    ("COc1ccc2c(c1)C1(C)CCN(C)CC(C1)C2O (stereo not drawn)", 72),
    ("CN1CCC2(C)CC(C1)C(O)c1ccccc12 (stereo not drawn)", 70),
    ("CC1C2CN(C)CCC1(C)c1ccccc1C2O (stereo not drawn)", 30),
    ("c1ccc(CCN2CCC3CC(Cc4ccccc43)C2)cc1 (stereo not drawn) [R=H, R1=H, R2=H, CH2R3=drawing 41, R4=H]", 35),
    ("C=CCN1CCC2CC(Cc3ccccc32)C1 (stereo not drawn)", 45),
    ("CC(C)=CCN1CCC2(C)c3cc(O)ccc3CC1C2C (stereo not drawn) [pentazocine, reference compound]", 25),
    ("CC(C)CCN1CCC2(C)CC(Cc3ccc(O)cc32)C1 (stereo not drawn) [R=HO, R1=CH3, R2=H, CH2R3=drawing 45, R4=H]", 40),
    ("C=CCN1CCC2CC(C1)C(O)c1ccccc12 (stereo not drawn)", 58),
    ("CN1CCC2CC(Cc3ccccc32)C1 (stereo not drawn)", 20),
    ("COc1ccc2c(c1)C1(C)CCN(CCc3ccccc3)CC(C2)C1 (stereo not drawn) [R=CH3O, R1=CH3, R2=H, CH2R3=drawing 44, R4=H]", 48),
    ("C=CCN1CCC2(C)CC(C1)C(O)c1ccccc12 (stereo not drawn)", 55),
    ("CCN1CCC2(C)CC(Cc3ccc(O)cc32)C1 (stereo not drawn)", 80),
    ("CC(C)=CCN1CCC2CC(Cc3ccccc32)C1 (stereo not drawn) [R=H, R1=H, R2=H, CH2R3=drawing 40, R4=H]", 65),
    ("CC(C)=CCN1CCC2(C)CC(Cc3ccc(O)cc32)C1 (stereo not drawn) [R=HO, R1=CH3, R2=H, CH2R3=drawing 43, R4=H]", 40),
    ("CC(C)=CCN1CCC2(C)CC(C1)C(O)c1ccccc12 (stereo not drawn) [R=H, R1=CH3, R2=H, CH2R3=drawing 38, R4=OH]", 25),
    ("CCN1CCC2(C)CC(Cc3ccc(OC)cc32)C1 (stereo not drawn)", 120),
    ("COc1ccc2c(c1)C1(C)CCN(C)CC(C2)C1 (stereo not drawn)", 120),
    ("OC1c2ccccc2C2CCN(CCc3ccccc3)CC1C2 (stereo not drawn) [R=H, R1=H, R2=H, CH2R3=drawing 37, R4=OH]", 45),
    ("c1ccc(CN2CCC3CC(Cc4ccccc43)C2)cc1 (stereo not drawn) [R=H, R1=H, R2=H, CH2R3=drawing 42, R4=H]", 120),
]

---

Tested on: mice of the ddN-series
ASSAY_INFO: Analgesic test, Chemical Stimulus Method (Writhing Method)
Format: in vivo, mouse
Parameters: scale not given here
RECORDED_CONDITIONS: interabdominal injection, comparative value, scale not given
Entries and their Chemical Stimulus Method (Writhing Method)
EXPERIMENTAL_READOUT: Chemical Stimulus Method (Writhing Method)

# COMPOUND, REPORTED_RESULT
rows = [
    ("OC1c2ccccc2C2CCN(CCc3ccccc3)CC1C2 (stereo not drawn) [R=H, R1=H, R2=H, CH2R3=drawing 37, R4=OH]", 1.8),
    ("C=CCN1CCC2CC(C1)C(O)c1ccccc12 (stereo not drawn)", 1.2),
    ("C=CCN1CCC2(C)CC(C1)C(O)c1ccccc12 (stereo not drawn)", 1.8),
    ("CC(C)=CCN1CCC2CC(C1)C(O)c1ccccc12 (stereo not drawn) [R=H, R1=H, R2=H, CH2R3=drawing 36, R4=OH]", 1.2),
    ("COc1ccc2c(c1)C1(C)CCN(CCc3ccccc3)CC(C2)C1 (stereo not drawn) [R=CH3O, R1=CH3, R2=H, CH2R3=drawing 44, R4=H]", 1.5),
    ("C=CCN1CCC2CC(Cc3ccccc32)C1 (stereo not drawn)", 1.4),
]

---

System: mice of the ddN-series
ASSAY_INFO: Analgesic test, Heat Stimulus Method (Hot Plate Method)
Assay type: in vivo, mouse
Set-up: reference not given here
RECORDED_CONDITIONS: hypodermic injection, comparative value, scale not given

# COMPOUND, Heat Stimulus Method (Hot Plate Method)
records = [
    ("c1ccc(CCN2CCC3CC(Cc4ccccc43)C2)cc1 (centres unmarked) [R=H, R1=H, R2=H, CH2R3=drawing 41, R4=H]", 5.0),
    ("CCN1CCC2(C)CC(Cc3ccc(O)cc32)C1 (centres unmarked) [R=HO, R1=CH3, R2=H, CH2R3=CH2CH3, R4=H]", 2.0),
    ("CN1CCC2CC(Cc3ccccc32)C1 (centres unmarked) [R=H, R1=H, R2=H, CH2R3=CH3, R4=H]", 0.6),
    ("COc1ccc2c(c1)C1(C)CCN(C)CC(C1)C2O (centres unmarked) [R=CH3O, R1=CH3, R2=H, CH2R3=CH3, R4=OH]", 5.0),
    ("CC(C)=CCN1CCC2CC(C1)C(O)c1ccccc12 (centres unmarked) [R=H, R1=H, R2=H, CH2R3=drawing 36, R4=OH]", 1.2),
    ("C=CCN1CCC2(C)CC(C1)C(O)c1ccccc12 (centres unmarked) [R=H, R1=CH3, R2=H, CH2R3=CH2CHCH2, R4=OH]", 1.5),
    ("CCN1CCC2(C)CC(Cc3ccc(OC)cc32)C1 (centres unmarked) [R=CH3O, R1=CH3, R2=H, CH2R3=CH2CH3, R4=H]", 2.0),
    ("CC1C2CN(C)CCC1(C)c1ccccc1C2O (centres unmarked) [R=H, R1=CH3, R2=CH3, CH2R3=CH3, R4=OH]", 2.0),
    ("c1ccc(CN2CCC3CC(Cc4ccccc43)C2)cc1 (centres unmarked) [R=H, R1=H, R2=H, CH2R3=drawing 42, R4=H]", 3.0),
    ("COc1ccc2c(c1)C1(C)CCN(CCc3ccccc3)CC(C2)C1 (centres unmarked) [R=CH3O, R1=CH3, R2=H, CH2R3=drawing 44, R4=H]", 2.0),
    ("COc1ccc2c(c1)C1(C)CCN(CCc3ccccc3)CC(C1)C2O (centres unmarked)", 2.2),
    ("C=CCN1CCC2CC(Cc3ccccc32)C1 (centres unmarked) [R=H, R1=H, R2=H, CH2R3=CH2CHCH2, R4=H]", 5.0),
    ("CN1CCC2(C)CC(C1)C(O)c1ccccc12 (centres unmarked) [R=H, R1=CH3, R2=H, CH2R3=CH3, R4=OH]", 1.4),
    ("C=CCN1CCC2CC(C1)C(O)c1ccccc12 (centres unmarked) [R=H, R1=H, R2=H, CH2R3=CH2CHCH2, R4=OH]", 1.4),
    ("CCN1CCC2(C)c3cc(OC)ccc3CC(C1)C2C (centres unmarked)", 2.0),
    ("C=CCN1CCC2(C)CC(C1)C(O)c1ccc(OC)cc12 (centres unmarked)", 1.6),
    ("CN1CCC2(C)CC(Cc3ccc(O)cc32)C1 (centres unmarked) [R=HO, R1=CH3, R2=H, CH2R3=CH3, R4=H]", 2.0),
    ("CC(C)=CCN1CCC2CC(Cc3ccccc32)C1 (centres unmarked) [R=H, R1=H, R2=H, CH2R3=drawing 40, R4=H]", 1.5),
    ("CC(C)=CCN1CCC2(C)CC(Cc3ccc(O)cc32)C1 (centres unmarked) [R=HO, R1=CH3, R2=H, CH2R3=drawing 43, R4=H]", 1.5),
    ("CC(C)CCN1CCC2(C)CC(Cc3ccc(O)cc32)C1 (centres unmarked) [R=HO, R1=CH3, R2=H, CH2R3=drawing 45, R4=H]", 1.5),
    ("COc1ccc2c(c1)C1(C)CCN(C)CC(C2)C1 (centres unmarked) [R=CH3O, R1=CH3, R2=H, CH2R3=CH3, R4=H]", 2.0),
    ("CC(C)=CCN1CCC2(C)CC(C1)C(O)c1ccccc12 (centres unmarked) [R=H, R1=CH3, R2=H, CH2R3=drawing 38, R4=OH]", 1.5),
    ("OC1c2ccccc2C2CCN(CCc3ccccc3)CC1C2 (centres unmarked) [R=H, R1=H, R2=H, CH2R3=drawing 37, R4=OH]", 4.5),
]
